- TARGET UNDER TEST: T1, His-tagged human IGF1R protein (ACRO Biosystems Inc., Cat #: IGR-H5229) (human, UniProt P08069 31-932)
- T1 construct: Bought protein; also called hIGF1R-His; not shown: His tag
- T1 sequence (P08069 31-932): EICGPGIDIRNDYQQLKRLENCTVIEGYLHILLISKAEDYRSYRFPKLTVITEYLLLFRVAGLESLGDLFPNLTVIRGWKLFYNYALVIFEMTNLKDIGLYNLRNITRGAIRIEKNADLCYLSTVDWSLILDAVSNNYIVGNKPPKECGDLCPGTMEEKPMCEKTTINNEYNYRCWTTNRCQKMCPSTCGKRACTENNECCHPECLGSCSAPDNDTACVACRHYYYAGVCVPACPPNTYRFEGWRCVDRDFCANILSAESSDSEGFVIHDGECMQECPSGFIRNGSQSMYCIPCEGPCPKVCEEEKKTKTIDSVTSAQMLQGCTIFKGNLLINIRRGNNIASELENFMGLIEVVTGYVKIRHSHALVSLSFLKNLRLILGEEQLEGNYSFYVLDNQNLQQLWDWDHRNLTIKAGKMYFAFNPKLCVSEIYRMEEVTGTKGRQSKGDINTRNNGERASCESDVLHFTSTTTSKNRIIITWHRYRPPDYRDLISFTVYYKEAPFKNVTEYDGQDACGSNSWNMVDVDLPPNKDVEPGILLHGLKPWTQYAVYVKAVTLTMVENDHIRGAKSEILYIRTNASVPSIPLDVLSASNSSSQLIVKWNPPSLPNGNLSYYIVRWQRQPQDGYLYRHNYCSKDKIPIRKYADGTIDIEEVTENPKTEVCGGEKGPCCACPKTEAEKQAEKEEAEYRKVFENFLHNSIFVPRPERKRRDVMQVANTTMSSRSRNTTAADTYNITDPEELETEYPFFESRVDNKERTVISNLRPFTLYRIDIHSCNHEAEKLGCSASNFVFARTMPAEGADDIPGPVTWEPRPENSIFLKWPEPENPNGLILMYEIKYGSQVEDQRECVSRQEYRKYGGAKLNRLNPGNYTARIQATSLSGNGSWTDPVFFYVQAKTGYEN
- PROTOCOL SUMMARY: SPR (Biacore 8K), antibody captured on Protein A chip, antigen as analyte, 1:1 model
MEASURED METRIC: kon (M⁻¹ s⁻¹)
Numbers only here, please. The scale is M⁻¹ s⁻¹.

Answered examples (3):
BINDER: anti-IGF1R antibody 10G1 (antibody, human IgG1, V domains shown) VH: QVQLVESGGGLVKPGGSLRLSCAASEFTFSDYYMSWIRQSPGKGLEWVSYISNSGSFTNYADSVKGRFTISRDNAKNSLYLQMNSLRAEDSAIYYCVRDQAPVTSKYYYYGMDVWGQGTTVTVSS VL: EIVLTQSPSSLSASVGDRVTITCRASQGIRNDFAWYQQKPGKAPKRLIYAASRLQRGVPSRFSGSGSGTEFTLTISSLQPEDFATYYCLQHNSYPYTFGQGTKLEIK
MEASURED METRIC: kon
QUANTITATIVE RESULT: 40700
--
BINDER: anti-IGF1R antibody 12D1 (antibody, human IgG1, V domains shown) VH: QVQLVESGGGVVRPGGSLRLSCAASGFTFDDYGMSWVRQVPGKGLEWVSGINWNGGSTDYADSVKGRFTISREKAKNSLYLQMNSLRAEDTALYYCVRDRGAVTRRYYYYGMDVWGQGTTVTVSS VL: DIQMTQSPSSLSASVGDRVTITCRASQDIRNDLGWYQLKPGKAPKRLIYAASRLQSGVPSRFSGSGSGTEFTLTISSLQPEDFATYYCLQHNSYPYTFGQGTKLEIK
MEASURED METRIC: kon
QUANTITATIVE RESULT: 6120
--
BINDER: anti-IGF1R antibody 12A4 (antibody, V domains shown) VH: EVQLVQSGGGEIRPGGSLRLSCAASGFTFADYGMSWVRQAPGEGLEWVSEIDWTGGSKLYADSVKGRFTISRDNAKNSLFLQMNSLRAEDTALYYCVRDRGAVSPKYYYYGMDVWGQGTTVTVSS VL: EIVLTQSPSSLSASVGDRVTITCRASQGIRNDLGWYQQKPGKAPKRLIYAASRLQSGVPSRFSGSGSGTDFTLTISSLQPEDFATYYCLQHNSYPYTFGQGTKLEIK
MEASURED METRIC: kon
QUANTITATIVE RESULT: 26600

Pending binder:
// kon lookup, key: anti-IGF1R antibody 10D1 (antibody, human IgG1, V domains shown) VH: QVQLQQSGGGVVRPGGSLRLSCAASGFTFADYGMSWVRQVPGKGLEWVSGINWNGGSTDYADSVKGRFTISRDNAKHSLYLQMNSLRAEDTAFYYCARDRGAVSRRYYYYGMDVWGLGTTVTVSS VL: AIQLTQSPSSLSASVGDRVTITCRASQDIRNDLGWYQLKPGKAPKRLIYAASRLQSGVPSGFSGSGSGTEFTLTISSLQPEDFATYYCLQHNSYPYTFGQGTKLEIK
7750
